These measurements were taken from ChEMBL document CHEMBL1124230.

test system: Human immunodeficiency virus 1; test: Dose required to inhibit cytopathic effect of human immunodeficiency virus replication in MT-4 cells.; format: functional; settings: Human immunodeficiency virus 1, MT4; read-out: ED50 (the source's name)
Binarize EC50 at 2 µM; below is Y, at or above is N.

Nc1nc(O)c2ncn(C3CC(F)C(CO)O3)c2n1 (configuration not stated)
N
CNc1ccn(C2CC(N=[N+]=[N-])C(CO)O2)c(=O)n1 (configuration not stated)
N
Nc1ncnc2c1ncn2C1OC(CO)CC1Br (configuration not stated)
N
Cc1cn([C@H]2C[C@H](SS[C@H]3C[C@H](n4cc(C)c(O)nc4=O)O[C@@H]3CO)[C@@H](CO)O2)c(=O)nc1O
N
CNc1nc(=O)n(C2CC(N=[N+]=[N-])C(CO)O2)cc1C (configuration not stated)
N

Strictly below 2 µM: is that where EC50 of `Nc1ncnc2c1ncn2[C@@H]1O[C@H](CO)C[C@@H]1O` sits?
N

Please determine if CC1=CN(C2CC(N=[N+]=[N-])C(CO)O2)CN=C1NO (configuration not stated) is below 2 µM in terms of EC50.
Y
